System: PANC-1 (prancreatic carcinoma) cell line
assay-info: CellTiter-Glo luminescent cell viability assay, PANC-1
Assay type: cell-based
conditions: Homo sapiens; PANC-1, 10 μM, 72 h, % of signal of diluent-treated cultures
measurement-label: viability at 10 µM (%)

- compound: "CC(C)NC1CCN(c2c(C#N)c(NCc3ccc(Cl)cc3)nc3ccccc23)CC1 [Compound 3174CN]"
  target-of-assay: "PANC-1 (prancreatic carcinoma) cell line"
  measurement-label: "viability at 10 µM"
  value-measured: 0.6
- compound: "Cc1cc(Nc2nc3ccccc3c(N3CCC(NC(C)(C)C)CC3)c2C#N)ccc1F [Compound 3250CN]"
  target-of-assay: "PANC-1 (prancreatic carcinoma) cell line"
  measurement-label: "viability at 10 µM"
  value-measured: 13.1
- compound: "Cc1ccc(OC2CCN(c3c(C#N)c(NCc4ccc(Cl)cc4)nc4ccccc34)CC2)cc1 [Compound 2944CN]"
  target-of-assay: "PANC-1 (prancreatic carcinoma) cell line"
  measurement-label: "viability at 10 µM"
  value-measured: 112
- compound: "N#Cc1c(NCc2ccc(Cl)cc2)nc2ccccc2c1N1CCC(Oc2ccccc2)CC1 [Compound 2940CN]"
  target-of-assay: "PANC-1 (prancreatic carcinoma) cell line"
  measurement-label: "viability at 10 µM"
  value-measured: 102
